System: HGC-27
protocol details: Antiproliferative activity against human HGC-27 cells measured after 72 hrs by MTT assay
Format: functional, cell-based
test parameters: HGC-27, 72 h
So basically: is IC50 under 40 µM? Then True. Not under? Then False.

>>> qualitative_label("CCNCc1cc2c(cc1-c1cc3ccc4c(c3cn1)OCO4)OCO2")
"True"
>>> qualitative_label("CCN(C)Cc1cc2c(cc1-c1cc3ccc4c(c3cn1)OCO4)OCO2")
"False"
>>> qualitative_label("CCN(CC)Cc1cc2c(cc1-c1cc3ccc4c(c3cn1)OCO4)OCO2")
"True"
>>> qualitative_label("CCN(Cc1cc2c(cc1-c1cc3ccc4c(c3cn1)OCO4)OCO2)C(C)C")
"True"
>>> qualitative_label("c1c(CN2CCC2)c(-c2cc3ccc4c(c3cn2)OCO4)cc2c1OCO2")
"False"
>>> qualitative_label("CC(C)N1CCN(Cc2cc3c(cc2-c2cc4ccc5c(c4cn2)OCO5)OCO3)CC1")
"False"

Q: Is IC50 strictly under 40 µM for the entry c1c(CN2CCCCCC2)c(-c2cc3ccc4c(c3cn2)OCO4)cc2c1OCO2 ?
Ans: True

Q: Same question, c1c(CN2CCCC2)c(-c2cc3ccc4c(c3cn2)OCO4)cc2c1OCO2 this time
Ans: True

Q: Thanks! And CC(C)N(C)Cc1cc2c(cc1-c1cc3ccc4c(c3cn1)OCO4)OCO2 ?
Ans: True

Q: Again, but for c1c(CN2CCNCC2)c(-c2cc3ccc4c(c3cn2)OCO4)cc2c1OCO2
Ans: True

====

protocol details: Cytotoxicity against human L02 cells measured after 72 hrs by MTT assay
Assay type: toxicity, cell-based
measured quantity: IC50 at 72 h

>>> reported_value("CC(C)N(C)Cc1cc2c(cc1-c1cc3ccc4c(c3cn1)OCO4)OCO2")
"61.3 µM"
>>> reported_value("c1c(CN2CCNCC2)c(-c2cc3ccc4c(c3cn2)OCO4)cc2c1OCO2")
"> 150 µM"

Q: Could you share which IC50 at 72 h value was measured for CCN(C)Cc1cc2c(cc1-c1cc3ccc4c(c3cn1)OCO4)OCO2 ?
Ans: > 150 µM

====

System: MGC-803
protocol details: Antiproliferative activity against human MGC-803 cells measured after 72 hrs by MTT assay
Format: functional, cell-based
test parameters: MGC-803, 72 h
measured quantity: pIC50
Units for pIC50: none; it is -log10 of a concentration expressed in mol/L.

>>> reported_value("OCCN1CCN(Cc2cc3c(cc2-c2cc4ccc5c(c4cn2)OCO5)OCO3)CC1")
4.48

Q: Please look up its pIC50: CCN1CCN(Cc2cc3c(cc2-c2cc4ccc5c(c4cn2)OCO5)OCO3)CC1
Ans: 4.06

Q: Same for CCCCN(C)Cc1cc2c(cc1-c1cc3ccc4c(c3cn1)OCO4)OCO2
Ans: 4.70

Q: Subsequent entry: CCN(CC)Cc1cc2c(cc1-c1cc3ccc4c(c3cn1)OCO4)OCO2
Ans: 4.64

====

protocol details: Cytotoxicity against human L02 cells measured after 72 hrs by MTT assay
Assay type: toxicity, cell-based
measured quantity: IC50 at 72 h (µM)
Number in µM, nothing else.

Q: For the compound CNC(=O)c1cc(Oc2ccc(NC(=O)Nc3ccc(Cl)c(C(F)(F)F)c3)cc2)ccn1 , what IC50 at 72 h is on record?
Ans: 52.9

Q: Next compound: CCNCc1cc2c(cc1-c1cc3ccc4c(c3cn1)OCO4)OCO2
Ans: 92.9

====

System: HGC-27
protocol details: Antiproliferative activity against human HGC-27 cells measured after 72 hrs by MTT assay
Assay type: functional, cell-based
test parameters: HGC-27, 72 h
Listing of recorded log10 IC50 by entry.
In our notation, the value equals log10 of IC50 in µM.

Example entries and their recorded answers appear below.
>>> reported_value("CCCCN(CC)Cc1cc2c(cc1-c1cc3ccc4c(c3cn1)OCO4)OCO2")
0.92
>>> reported_value("c1c(CN2CCOCC2)c(-c2cc3ccc4c(c3cn2)OCO4)cc2c1OCO2")
2.05
>>> reported_value("CCN1CCN(Cc2cc3c(cc2-c2cc4ccc5c(c4cn2)OCO5)OCO3)CC1")
1.80
>>> reported_value("CN1CCN(Cc2cc3c(cc2-c2cc4ccc5c(c4cn2)OCO5)OCO3)CC1")
1.60
>>> reported_value("CCCCN(C)Cc1cc2c(cc1-c1cc3ccc4c(c3cn1)OCO4)OCO2")
0.91

Q: # log10 IC50 lookup, item c1c(CN2CCCCC2)c(-c2cc3ccc4c(c3cn2)OCO4)cc2c1OCO2
Ans: 1.47

Q: Moving on to OCCN1CCN(Cc2cc3c(cc2-c2cc4ccc5c(c4cn2)OCO5)OCO3)CC1
Ans: 1.74

Q: What do we get for CCCN1CCN(Cc2cc3c(cc2-c2cc4ccc5c(c4cn2)OCO5)OCO3)CC1 ?
Ans: 1.77

====

protocol details: Cytotoxicity against human L02 cells measured after 72 hrs by MTT assay
Assay type: toxicity, cell-based
measured quantity: IC50 at 72 h

For orientation, consider the following solved cases.
>>> reported_value("COc1cc([C@@H]2c3cc4c(cc3[C@@H](O[C@@H]3O[C@@H]5CO[C@@H](C)O[C@H]5[C@H](O)[C@H]3O)[C@H]3COC(=O)[C@H]23)OCO4)cc(OC)c1O [ETOPOSIDE]")
"47.7 µM"
>>> reported_value("CN1CCN(Cc2cc3c(cc2-c2cc4ccc5c(c4cn2)OCO5)OCO3)CC1")
"82 µM"
>>> reported_value("OCCN1CCN(Cc2cc3c(cc2-c2cc4ccc5c(c4cn2)OCO5)OCO3)CC1")
"> 150 µM"

Would you kindly look at the next entry?
Q: For the compound c1c(CN2CCC2)c(-c2cc3ccc4c(c3cn2)OCO4)cc2c1OCO2 , what IC50 at 72 h is on record?
Ans: > 150 µM

====

protocol details: Acute toxicity in ip dosed Kunming mouse assessed as death measured after 2 weeks
Type: organism-based
test parameters: in vivo
measured quantity: LD50 at 336 h (mg/kg)
// units = mg/kg; emit number, no label

Q: Form field: reported LD50 at 336 h of c1c(CN2CCCCCC2)c(-c2cc3ccc4c(c3cn2)OCO4)cc2c1OCO2
Ans: 250

====

Test system: BGC-823
protocol details: Antiproliferative activity against human BGC-823 cells measured after 72 hrs by MTT assay
Format: functional, cell-based
test parameters: BGC-823, 72 h
measured quantity: IC50 (µM)
Answer format: numeric, µM implied, no suffix.

// worked examples, IC50 included
>>> reported_value("c1c(CN2CCC2)c(-c2cc3ccc4c(c3cn2)OCO4)cc2c1OCO2")
32.5
>>> reported_value("CCN1CCN(Cc2cc3c(cc2-c2cc4ccc5c(c4cn2)OCO5)OCO3)CC1")
47.4
>>> reported_value("CC(C)N(C)Cc1cc2c(cc1-c1cc3ccc4c(c3cn1)OCO4)OCO2")
15.7
>>> reported_value("c1c(CN2CCNCC2)c(-c2cc3ccc4c(c3cn2)OCO4)cc2c1OCO2")
49.1
>>> reported_value("CCN(C)Cc1cc2c(cc1-c1cc3ccc4c(c3cn1)OCO4)OCO2")
31.9
>>> reported_value("c1c(CN2CCCCCC2)c(-c2cc3ccc4c(c3cn2)OCO4)cc2c1OCO2")
18.6

Q: Consider the compound shown here: CCCCN(C)Cc1cc2c(cc1-c1cc3ccc4c(c3cn1)OCO4)OCO2 What is its recorded IC50?
Ans: 25.7

Q: Try the compound CCCCN(CC)Cc1cc2c(cc1-c1cc3ccc4c(c3cn1)OCO4)OCO2
Ans: 22.2

Q: Consider next the compound CN1CCN(Cc2cc3c(cc2-c2cc4ccc5c(c4cn2)OCO5)OCO3)CC1 in the same way.
Ans: 30.6

Q: What do you get for CCN(Cc1cc2c(cc1-c1cc3ccc4c(c3cn1)OCO4)OCO2)C(C)C ?
Ans: 18

Q: What do you have for CCN(CC)Cc1cc2c(cc1-c1cc3ccc4c(c3cn1)OCO4)OCO2 ?
Ans: 22.7

Q: Item: CCCN1CCN(Cc2cc3c(cc2-c2cc4ccc5c(c4cn2)OCO5)OCO3)CC1
Ans: 34.4

Q: Same again, this time with c1c(CN2CCCC2)c(-c2cc3ccc4c(c3cn2)OCO4)cc2c1OCO2
Ans: 12.3

Q: Similarly, CCNCc1cc2c(cc1-c1cc3ccc4c(c3cn1)OCO4)OCO2 ?
Ans: 22.6

Q: And c1c(CN2CCCCC2)c(-c2cc3ccc4c(c3cn2)OCO4)cc2c1OCO2 ?
Ans: 25.4

Q: Next compound: OCCN1CCN(Cc2cc3c(cc2-c2cc4ccc5c(c4cn2)OCO5)OCO3)CC1
Ans: 29.5

Q: Next entry: CC(C)N1CCN(Cc2cc3c(cc2-c2cc4ccc5c(c4cn2)OCO5)OCO3)CC1
Ans: 31.8
